The origin of these recorded values is patent US20250136578A1.

I'd be grateful if you could share measured pEC50 for these entries.
molecular target: AR / CBP ternary complex (Homo sapiens, UniProt P10275+Q92793); test: Ternary complex formation assay (sandwich ELISA, AR capture, CBP antibody detection) in VCaP cell lysates; type: cell-based; details: treated 1.5 hours, rabbit CBP or p300 antibody detection, average, read-out: Average Ternary Complex
Sequence (P10275 whole entry): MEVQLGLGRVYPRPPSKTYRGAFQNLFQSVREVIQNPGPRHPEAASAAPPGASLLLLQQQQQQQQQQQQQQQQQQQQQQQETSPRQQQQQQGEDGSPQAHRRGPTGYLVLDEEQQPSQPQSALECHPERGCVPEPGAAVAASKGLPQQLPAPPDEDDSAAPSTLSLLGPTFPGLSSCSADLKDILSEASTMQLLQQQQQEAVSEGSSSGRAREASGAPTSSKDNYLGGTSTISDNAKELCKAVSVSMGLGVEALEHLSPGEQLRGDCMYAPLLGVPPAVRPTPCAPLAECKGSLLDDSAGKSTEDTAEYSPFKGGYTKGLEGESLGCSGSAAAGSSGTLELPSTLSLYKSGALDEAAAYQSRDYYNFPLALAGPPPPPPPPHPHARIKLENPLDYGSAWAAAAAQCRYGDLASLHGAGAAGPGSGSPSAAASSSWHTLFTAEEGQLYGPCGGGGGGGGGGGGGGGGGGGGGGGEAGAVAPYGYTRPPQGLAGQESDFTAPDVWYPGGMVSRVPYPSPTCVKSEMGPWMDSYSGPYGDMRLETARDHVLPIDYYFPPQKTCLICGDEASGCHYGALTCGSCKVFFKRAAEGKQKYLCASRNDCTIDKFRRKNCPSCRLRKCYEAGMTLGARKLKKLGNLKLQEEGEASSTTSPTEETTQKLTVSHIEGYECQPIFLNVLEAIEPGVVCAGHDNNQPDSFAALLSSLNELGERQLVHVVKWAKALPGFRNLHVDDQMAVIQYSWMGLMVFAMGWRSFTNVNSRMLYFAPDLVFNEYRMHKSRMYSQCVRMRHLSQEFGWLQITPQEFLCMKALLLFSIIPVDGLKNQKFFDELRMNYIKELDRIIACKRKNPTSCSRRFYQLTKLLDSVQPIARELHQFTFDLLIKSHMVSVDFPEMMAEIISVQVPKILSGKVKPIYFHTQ
Sequence (Q92793 2-2442): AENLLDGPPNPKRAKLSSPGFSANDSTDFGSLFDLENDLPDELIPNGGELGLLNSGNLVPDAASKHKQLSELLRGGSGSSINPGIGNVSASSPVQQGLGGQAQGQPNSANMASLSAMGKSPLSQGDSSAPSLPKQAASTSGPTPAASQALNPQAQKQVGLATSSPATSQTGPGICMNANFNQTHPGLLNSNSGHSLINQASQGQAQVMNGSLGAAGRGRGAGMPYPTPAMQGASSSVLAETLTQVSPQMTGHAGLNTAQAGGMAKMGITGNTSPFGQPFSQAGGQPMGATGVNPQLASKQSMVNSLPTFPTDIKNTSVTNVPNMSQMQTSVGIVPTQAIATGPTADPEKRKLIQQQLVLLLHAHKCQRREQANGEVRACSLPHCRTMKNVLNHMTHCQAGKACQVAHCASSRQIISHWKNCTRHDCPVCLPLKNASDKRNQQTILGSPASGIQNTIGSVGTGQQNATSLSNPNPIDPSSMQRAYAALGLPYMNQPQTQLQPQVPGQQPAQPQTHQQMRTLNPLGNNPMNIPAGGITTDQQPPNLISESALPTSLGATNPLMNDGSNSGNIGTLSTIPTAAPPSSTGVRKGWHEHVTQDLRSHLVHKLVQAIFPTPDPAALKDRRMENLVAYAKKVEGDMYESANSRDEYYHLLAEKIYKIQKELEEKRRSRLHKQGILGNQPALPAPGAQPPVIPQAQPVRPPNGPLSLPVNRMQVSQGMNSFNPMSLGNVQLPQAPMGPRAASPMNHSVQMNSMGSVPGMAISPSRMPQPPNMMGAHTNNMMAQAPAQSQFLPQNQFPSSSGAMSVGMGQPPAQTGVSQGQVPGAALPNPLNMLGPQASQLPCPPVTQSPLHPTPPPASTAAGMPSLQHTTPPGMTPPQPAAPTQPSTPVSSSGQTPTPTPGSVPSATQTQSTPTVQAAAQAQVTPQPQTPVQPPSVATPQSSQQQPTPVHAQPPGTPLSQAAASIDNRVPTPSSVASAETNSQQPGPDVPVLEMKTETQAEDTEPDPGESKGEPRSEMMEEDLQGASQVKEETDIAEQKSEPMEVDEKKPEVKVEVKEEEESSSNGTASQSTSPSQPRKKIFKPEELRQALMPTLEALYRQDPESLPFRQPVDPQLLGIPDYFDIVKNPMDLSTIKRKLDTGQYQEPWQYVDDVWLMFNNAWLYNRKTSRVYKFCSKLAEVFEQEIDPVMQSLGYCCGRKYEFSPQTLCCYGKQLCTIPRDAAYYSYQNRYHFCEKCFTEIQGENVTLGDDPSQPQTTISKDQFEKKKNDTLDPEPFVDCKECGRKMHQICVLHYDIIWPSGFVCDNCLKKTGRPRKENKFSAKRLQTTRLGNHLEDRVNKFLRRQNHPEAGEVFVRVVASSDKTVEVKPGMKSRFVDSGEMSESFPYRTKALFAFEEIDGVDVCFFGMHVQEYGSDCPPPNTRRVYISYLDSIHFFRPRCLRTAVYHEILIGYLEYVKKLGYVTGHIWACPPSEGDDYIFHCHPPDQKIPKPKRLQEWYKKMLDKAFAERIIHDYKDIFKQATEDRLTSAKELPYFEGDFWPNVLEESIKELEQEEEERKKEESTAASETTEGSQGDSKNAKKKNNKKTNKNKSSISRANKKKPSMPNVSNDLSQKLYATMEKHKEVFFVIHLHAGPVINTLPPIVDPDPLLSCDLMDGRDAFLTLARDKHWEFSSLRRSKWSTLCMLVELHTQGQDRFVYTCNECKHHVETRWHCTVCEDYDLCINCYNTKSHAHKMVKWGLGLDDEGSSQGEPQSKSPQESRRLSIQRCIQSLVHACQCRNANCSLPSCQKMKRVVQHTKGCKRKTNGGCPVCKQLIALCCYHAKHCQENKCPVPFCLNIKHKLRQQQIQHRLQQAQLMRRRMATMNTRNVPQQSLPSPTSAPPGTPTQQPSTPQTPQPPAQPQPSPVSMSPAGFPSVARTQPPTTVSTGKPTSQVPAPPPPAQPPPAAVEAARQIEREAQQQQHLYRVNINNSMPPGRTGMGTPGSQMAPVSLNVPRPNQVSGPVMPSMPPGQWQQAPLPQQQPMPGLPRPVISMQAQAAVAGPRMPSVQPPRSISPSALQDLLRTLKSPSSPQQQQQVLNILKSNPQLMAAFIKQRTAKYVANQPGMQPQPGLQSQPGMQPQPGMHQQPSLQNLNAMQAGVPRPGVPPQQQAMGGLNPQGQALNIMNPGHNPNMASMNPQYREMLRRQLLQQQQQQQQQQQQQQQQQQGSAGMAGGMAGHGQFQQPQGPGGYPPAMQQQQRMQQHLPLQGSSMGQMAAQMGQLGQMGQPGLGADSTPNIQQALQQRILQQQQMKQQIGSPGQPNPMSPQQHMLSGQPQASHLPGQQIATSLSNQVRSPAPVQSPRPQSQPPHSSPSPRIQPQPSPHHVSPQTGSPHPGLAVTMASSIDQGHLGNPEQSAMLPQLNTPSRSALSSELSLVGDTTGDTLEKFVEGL
pEC50: −log10 of the molar value.

Log: AR / CBP ternary complex (Homo sapiens, UniProt P10275+Q92793), molecule CC(=O)N1CCc2c(c(N3CCCc4cc(-c5cnn(C)c5)c(C(F)F)cc43)nn2C2CCN(C(=O)CC3CCN(c4ccc(C(=O)N[C@H]5CC[C@H](Oc6ccc(C#N)c(Cl)c6)CC5)nn4)CC3)CC2)C1 [Compound 14] , pEC50 = > 9.00

Log: AR / CBP ternary complex (Homo sapiens, UniProt P10275+Q92793), molecule Cc1cc2c(N3CCCc4cc(-c5cnn(C)c5)c(C(F)F)cc43)cc(N3CCN(CC4CCN(c5ccc(C(=O)N[C@H]6CC[C@H](Oc7ccc(C#N)c(Cl)c7)CC6)nn5)CC4)CC3)cc2n(C)c1=O [Compound 135] , pEC50 = 8.00 to 9.00

Log: AR / CBP ternary complex (Homo sapiens, UniProt P10275+Q92793), molecule C[C@@H]1CC(=O)Nc2cccc(N3CCCc4cc(-c5cnn(CCC6CCN(c7ccc(C(=O)N[C@H]8CC[C@H](Oc9ccc(C#N)c(Cl)c9)CC8)nn7)CC6)c5)c(C(F)F)cc43)c2N1 [Compound 36] , pEC50 = 7.00 to 8.00

Log: AR / CBP ternary complex (Homo sapiens, UniProt P10275+Q92793), molecule CC(=O)N1CCc2c(c(-c3cccc4cc(-c5cnn(C)c5)ncc34)nn2C2CCN(CC3CCN(c4ccc(C(=O)N[C@H]5CC[C@H](Oc6ccc(C#N)c(Cl)c6)CC5)cc4)CC3)CC2)C1 [Compound 162] , pEC50 = 8.00 to 9.00

Log: AR / CBP ternary complex (Homo sapiens, UniProt P10275+Q92793), molecule CC(=O)N1CCc2c(c(N3CCCc4cc(-c5cnn(C)c5)c(C)cc43)nn2C2CCN(CC3CCN(c4ccc(C(=O)N[C@H]5CC[C@H](Oc6ccc(C#N)c(Cl)c6)CC5)nn4)CC3(C)C)CC2)C1 (some centres unmarked) [Compound 282] , pEC50 = > 9.00
